# stated.conditions: mouse oral PK, female Balb/c, 40 mg/kg single dose, plasma
Provide the reported Cmax of each item.
Kindly answer with a numeric value in ng/mL, unit omitted.

Notebook: CC(C)(C)[C@H](NC(=O)C(F)F)C(=O)N1C[C@H]2[C@@H]([C@H]1C(=O)N[C@H](C#N)C[C@@H]1CCNC1=O)C2(C)C [Compound D-3-b] , Cmax read as 1190

Value of Cmax reported for the compound CC(C)C[C@H](CC(=O)[C@@H](NC(=O)OCc1ccccc1)[C@@H](C)OC(C)(C)C)C(=O)N[C@H](C=O)C[C@@H]1CCNC1=O [Compound C-1-b] is 46.1

The compound C[C@@H](OC(C)(C)C)[C@H](NC(=O)OCc1ccccc1)C(=O)N[C@@H](CC1CCCCC1)C(=O)N[C@H](C=O)C[C@@H]1CCNC1=O [Compound C-2-b] showed Cmax equal to 496

Form: compound = CC(C)C[C@H](NC(=O)C(F)F)C(=O)N1C[C@H]2[C@@H]([C@H]1C(=O)N[C@H](C#N)C[C@@H]1CCNC1=O)C2(C)C [Compound H-1-b] ; Cmax = 193

Record CC(C)(C)[C@H](NC(=O)C(F)(F)F)C(=O)N1C[C@H]2[C@@H]([C@H]1C(=O)N[C@H](C=O)C[C@@H]1CCNC1=O)C2(C)C [Compound D-1-f] , field Cmax: 839

# compound CC(C)(C)[C@H](NC(=O)C(F)(F)F)C(=O)N1C[C@H]2[C@@H]([C@H]1C(=O)N[C@H](C#N)C[C@@H]1CCCNC1=O)C2(C)C [Compound D-3-a] ; its Cmax = 7070
